target: Factor Xa (Homo sapiens); assay: In vitro inhibition of purified enzymes, Ki determination: Factor Xa (hydrolysis of S-2765); assay type: biochemical; set-up: purchased Enzyme Research Laboratories (South Bend, Ind.); conditions: purified activated human Factor X, substrate S-2765, 37° C., pH 7.5; read-out: KI FXa
Sequence (P00742 235-488 limits assumed): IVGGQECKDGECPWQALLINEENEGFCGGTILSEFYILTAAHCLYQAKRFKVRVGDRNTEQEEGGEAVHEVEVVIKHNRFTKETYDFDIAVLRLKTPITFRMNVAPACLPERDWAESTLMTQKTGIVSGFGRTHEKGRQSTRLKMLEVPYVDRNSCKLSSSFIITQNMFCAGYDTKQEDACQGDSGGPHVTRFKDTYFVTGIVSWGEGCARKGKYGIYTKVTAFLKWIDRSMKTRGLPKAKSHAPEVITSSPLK
Sequence (P00742 41-179 partner limits assumed): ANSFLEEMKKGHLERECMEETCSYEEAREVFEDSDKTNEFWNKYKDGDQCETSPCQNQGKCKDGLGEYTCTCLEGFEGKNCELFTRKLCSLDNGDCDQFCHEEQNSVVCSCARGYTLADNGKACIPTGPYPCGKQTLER
measurement_type: Ki (nM)

Below: 2 molecules and their reported Ki.
INSERT INTO assay_data (molecule, measured_target, meas_value) VALUES
  ('Cc1nn(-c2ccc3ccnc(N)c3c2)c2c(F)c(-c3ccc(-c4ccccc4S(C)(=O)=O)cc3F)ccc12 [Example 93]', 'Factor Xa (Homo sapiens)', 46),
  ('Cc1nn(-c2ccc3onc(N)c3c2)c2c(F)c(-c3ccc(N4CCCCC4=O)cc3)ccc12 [Example 86]', 'Factor Xa (Homo sapiens)', 48);

1 = COc1cccc(-n2nc(C)c3ccc(-c4ccc(N5CCCCC5=O)cc4)c(F)c32)c1 [Example 4]
2 = NC(=O)c1nn(-c2ccc3onc(N)c3c2)c2c(F)c(-c3ccc(N4CCOCC4=O)cn3)ccc12 [Example 43]
q: Please let me know which one, 1 or 2 , has a lower measured Ki value. Answer = label.
a: 2
